Tested on: PP2A-B55α
Test: Single alanine mutational scan, YFP-tagged interactors immunoprecipitated from HeLa cells, Western blot
Assay type: binding, human
Conditions: single alanine mutant of YFP-tagged CDCA4
TEST_READOUT: Experimental % binding (%)
One number for each entry, in %.

MOLECULE	TEST_READOUT	VALUE_UNIT	RECORDED_MEASUREMENT
CDCA4 L42: CDCA4, L42 to alanine (protein, UniProt Q9BXL8 1-241, looked up, variant L42A) Cell division …: MFARGLKRKCVGHEEDVEGALAGLKTVSSYSLQRQSLLDMSAVKLQLCHMLVEPNLCRSVLIANTVRQIQEEMTQDGTWRTVAPQAAERAPLDRLVSTEILCRAAWGQEGAHPAPGLGDGHTQGPVSDLCPVTSAQAPRHLQSSAWEMDGPRENRGSFHKSLDQIFETLETKNPSCMEELFSDVDSPYYDLDTVLTGMMGGARPGPCEGLEGLAPATPGPSSSCKSDLGELDHVVEILVET	Experimental % binding	%	129

The record that follows has no Experimental % binding shown yet.
Return reported Experimental % binding; argument: CDCA4 V43: CDCA4, V43 to alanine (protein, UniProt Q9BXL8 1-241, looked up, variant V43A) Cell division …: MFARGLKRKCVGHEEDVEGALAGLKTVSSYSLQRQSLLDMSLAKLQLCHMLVEPNLCRSVLIANTVRQIQEEMTQDGTWRTVAPQAAERAPLDRLVSTEILCRAAWGQEGAHPAPGLGDGHTQGPVSDLCPVTSAQAPRHLQSSAWEMDGPRENRGSFHKSLDQIFETLETKNPSCMEELFSDVDSPYYDLDTVLTGMMGGARPGPCEGLEGLAPATPGPSSSCKSDLGELDHVVEILVET
81
